assay_target: Proteasome subunit beta (Trypanosoma cruzi) (UniProt O96673)
Sequence (O96673 as listed by the source): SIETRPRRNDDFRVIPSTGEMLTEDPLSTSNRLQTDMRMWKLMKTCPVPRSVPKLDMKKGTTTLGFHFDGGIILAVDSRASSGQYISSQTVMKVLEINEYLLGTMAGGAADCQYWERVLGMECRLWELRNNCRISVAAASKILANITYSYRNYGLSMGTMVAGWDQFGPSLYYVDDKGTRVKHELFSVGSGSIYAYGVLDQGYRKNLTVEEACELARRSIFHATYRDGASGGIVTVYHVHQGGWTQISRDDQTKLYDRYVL
assay_name: Trypanosoma cruzi proteasome chymotrypsin-like activity (TcProtChymo) assay.
Type: functional
Design: scale not given: in the data most compounds retested in dose-response had high values
assay_conditions: 9.37 µM
Each record here notes measured Percent Effect.
Write the numeric value and append its unit.

Check out these entries, answers already filled in.
| molecule | Percent Effect |
| --- | --- |
| Cc1cc(C)n(CC2CN(CC(=O)Nc3nncs3)CCO2)n1 (configuration not stated) | -4.05% |
| CCCn1nccc1C(=O)N1CCCN(CCCc2ccccc2)CC1 | 16.2% |

Entry CCOCCCNC(=O)c1ccccc1S(C)(=O)=O , Proteasome subunit beta (Trypanosoma cruzi) (UniProt O96673) data, Percent Effect value: 11.6%

Entry COCCN1CCC(CN(CC2CCCO2)C(=O)CCNC(C)=O)CC1 (configuration not stated) , Proteasome subunit beta (Trypanosoma cruzi) (UniProt O96673) data, Percent Effect value: 1.75%

Entry O=C1COC2(CCN(Cc3ccc(F)cc3)CC2)CN1 , Proteasome subunit beta (Trypanosoma cruzi) (UniProt O96673) data, Percent Effect value: 10.2%

Entry CCNc1cc2c(nn1)CCN(C(=O)c1ccc(CNC(C)=O)o1)C2 , Proteasome subunit beta (Trypanosoma cruzi) (UniProt O96673) data, Percent Effect value: 6.36%

Entry O=C(CCCOc1ccccc1Cl)N1CCCC(n2cncn2)C1 (configuration not stated) , Proteasome subunit beta (Trypanosoma cruzi) (UniProt O96673) data, Percent Effect value: -5.03%
